Assay: qHTS of pediatric cancer cell lines to identify multiple opportunities for drug repurposing: Primary screen for Rh18 cells (AID 1347102); note: nearly all actives have a fitted effect of over 65% in size
Conditions: Rh18 rhabdomyosarcoma viability, CellTiter-Glo luminescence, 48 h; series mostly up to 46 µM
Records with an inconclusive call do not appear. The source made the active and inactive calls. Calls come from the whole dose curve; as a rule, active = well fitted cell-killing curve with a large enough effect; inconclusive = small, poorly fitted or top-dose-only effect; inactive = flat fitted curve, though single readings scatter.
Answer with one of the outcomes 1 (yes) = active, 0 (no) = inactive

>>> print(df.to_string())
                                   compound  group_label
0  CNC(=O)CN(CCN(CCN(CC(=O)[O-])CC(=O)NC)CC(=O)[O-])CC(=O)[O-].O.[Gd+3]       0 (no)

# ---- query compound ----
q: So what was the verdict on COCc1c(C(C)C)nc(C(C)C)c(/C=C/[C@@H](O)C[C@@H](O)CC(=O)O)c1-c1ccc(F)cc1 in this test?
a: 1 (yes)

---

Assay: Cell Viability - LYMP2-024 (AID 988);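 note: cells exposed to compound for 24 hr at 37 °C; nearly all actives have a fitted effect of over 60% in size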
Details: LYMP2-024 lymphoblastoid cell viability; series mostly up to 92.2 µM
Records with an inconclusive call do not appear. Calls of active or inactive are those of the source. Calls follow the shape of the dose curve; as a rule, active = well fitted cell-killing curve with a large enough effect; inconclusive = small, poorly fitted or top-dose-only effect; inactive = flat fitted curve, though single readings scatter.
Answer with one of the outcomes yes (1) for active, no (0) for inactive

In [3]: df
Out[3]:
                                chem_smiles  group_label
0  COC1=CC(=O)C[C@@H](C)[C@]12Oc1c(Cl)c(OC)cc(OC)c1C2=O       no (0)

q: So what was the verdict on CN(C)/N=N/c1nc[nH]c1C(N)=O in this test?
a: no (0)

q: For CC(C)(C)CC(C)(C)c1ccc(OCCOCC[N+](C)(C)Cc2ccccc2)cc1 then?
a: yes (1)

q: For O=C(O)CCCCC(=O)O then?
a: no (0)

q: For COc1cccc2c1C(=O)c1c(O)c3c(c(O)c1C2=O)C[C@@](O)(C(=O)CO)C[C@@H]3O[C@H]1C[C@H](N)[C@H](O)[C@H](C)O1 then?
a: yes (1)

q: For C=CCc1ccc(O)c(OC)c1 then?
a: no (0)

q: For CCCCCCc1ccc(O)cc1O then?
a: no (0)

---

System: Dd2
Assay: qHTS profiling for inhibitors of Plasmodium falciparum proliferation (AID 504749); note: nearly all actives have a fitted effect of over 60% in size
Details: P. falciparum in erythrocytes, SYBR Green DNA, 72 h; series mostly up to 28.7 µM
Records with an inconclusive call do not appear. Active and inactive are the calls of the source. Calls come from the whole dose curve; as a rule, active = well fitted inhibition curve with a large enough effect; inconclusive = small, poorly fitted or top-dose-only effect; inactive = flat fitted curve, though single readings scatter.
Answer with one of the outcomes 1.0 for active, 0.0 for inactive

Examples from the recorded data:
In [3]: df
Out[3]:
                                   molecule  group_label
0                        COc1cc(OC)cc(OC)c1          0.0
1  COc1cc2c(cc1OC)C(C(C(=O)N(CCc1ccc(OC)c(OC)c1OC)CCc1ccc(OC)c(OC)c1OC)c1ccccc1)=NCC2 (stereo not given)          1.0
2  CCOC(=O)OC(C)OC1=C(C(=O)Nc2ccccn2)N(C)S(=O)(=O)c2ccccc21 (stereo not given)          0.0
3  CCN(CC)CCOC(=O)C(c1ccccc1)C1CCCCC1 (stereo not given)          1.0
4                N[C@@H](Cc1cnc[nH]1)C(=O)O          0.0

q: So what was the verdict on O=C(OCCOCCO)c1ccccc1Nc1cccc(C(F)(F)F)c1 in this test?
a: 0.0

q: For CN1CCC[C@@H]1c1cccnc1 then?
a: 0.0

q: For CC(C)(C)CC(C)(C)c1ccc(O)c(Cc2ccc(Cl)cc2Cl)c1 then?
a: 1.0

q: For CC(C)COC(=O)c1ccc(N)cc1 then?
a: 0.0

q: For CN1CCC(=C2c3ccccc3Sc3ccccc32)CC1 then?
a: 1.0

q: For CCOc1ccc(NC(=O)CC(C)O)cc1 (stereo not given) then?
a: 0.0
